Let's look at some compounds and their measured inhibition at 0.001 mg.
System: response of L. dispar antennae to (+)-disparlure
Assay: Competitive electroantennogram (EAG) screen, inhibition of response to (+)-disparlure (Example 4)
Design: species or system Lymantria dispar
Details: Lymantria dispar; dose 1 μg on cartridge; means ± S.E.
Report as a plain number; the unit % is understood.

Illustrative cases are given below, each with its answer.
| compound | reportedMeasurement |
| --- | --- |
| CCOc1ccc(OCC)cc1 [3c{2,2}, 1,4-Diethoxy benzene] | 4 |
| COc1ccc(O)cc1 [2c{1}, 4-Methoxy phenol] | 10 |
| COc1ccc(OC)cc1 [3c{1,1}, 1,4-Dimethoxy benzene] | 4 |
| CCOc1ccc(O)cc1 [2c{2}, 4-Ethoxy phenol] | 49 |
| CCCOc1ccc(OCCC)cc1 [3c{3,3}, 1,4-Dipropoxy benzene] | 5 |
| CC(C)CCOc1ccc(OCCC(C)C)cc1 [3c{5,5}, 1,4-Di-(3-methyl-butyloxy) benzene] | 63 |

Form field inhibition at 0.001 mg, entry CCCOc1ccc(O)cc1 [2c{3}, 4-Propoxy phenol] : 17

Form field inhibition at 0.001 mg, entry CC(C)CCOc1ccc(O)cc1 [2c{5}, 4-(3-Methyl-butyloxy) phenol] : 38

----------
Tested on: response of L. dispar antennae to (+)-disparlure
Assay: Competitive electroantennogram (EAG) screen, inhibition of response to (+)-disparlure (Example 4)
Set-up: species or system Lymantria dispar
Details: Lymantria dispar; dose 10 μg on cartridge; means ± S.E.
Let's look at some molecules and their measured inhibition at 0.01 mg.
Report as a plain number; the unit % is understood.

Illustrative cases are given below, each with its answer.
| recordSmiles | targetDesc | inhibition at 0.01 mg / % |
| --- | --- | --- |
| CCCOc1ccc(O)cc1 | response of L. dispar antennae to (+)-disparlure | 43 |
| CC(C)CCOc1ccc(O)cc1 | response of L. dispar antennae to (+)-disparlure | 38 |
| CCOc1ccc(O)cc1 | response of L. dispar antennae to (+)-disparlure | 64 |
| COc1ccc(OC)cc1 | response of L. dispar antennae to (+)-disparlure | -8 |
| CCCOc1ccc(OCCC)cc1 | response of L. dispar antennae to (+)-disparlure | 55 |

Form field inhibition at 0.01 mg, entry "COc1ccc(O)cc1" : 55

Form field inhibition at 0.01 mg, entry "CC(C)CCOc1ccc(OCCC(C)C)cc1" : 38

Form field inhibition at 0.01 mg, entry "CCOc1ccc(OCC)cc1" : 45

----------
Tested on: male gypsy moth antenna
Test: Coupled gas chromatographic-electroantennographic detection (GC-EAD)
Parameters: species or system Lymantria dispar
Settings: EAD peak size and shape (sharp/broad)
propertyMeasured: GC-EAD activity

Illustrative cases are given below, each with its answer.
| compound | GC-EAD activity |
| --- | --- |
| CCCCOc1ccccc1O [2a{4}, 2-Butoxy phenol] | None |
| CCCOc1cccc(OCCC(C)C)c1 [3b{3,5}, 1-(3-methyl-butyloxy)-3-propoxy benzene] | None |
| CCOc1ccc(O)cc1 [2c{2}, 4-Ethoxy phenol] | None |
| C=CCc1ccc(OCCC(C)C)c(OC)c1 [iPent eugenol] | None |
| COc1ccccc1OCCC(C)C [3a{1,5}, 1-methoxy-2-(3-methyl-butoxy) benzene] | + broad |

As a next step, examine the compound that follows.
Field GC-EAD activity (system: male gypsy moth antenna) for entry CCCOc1ccc(OCC)cc1 [3c{2,3}, 1-ethoxy-4-propoxy benzene] = None
